// reported CC50 at 4 days per item
assay: Compound cytotoxicity, XTT-based colorimetric assay; assay type: cell-based; settings: human; uninfected MT2 cells, day 4, XTT; read-out: CC50

Input line: Which CC50 at 4 days value belongs to COCCCn1nc(NS(C)(=O)=O)c2c(Cl)ccc(-n3c([C@H](Cc4cc(F)cc(F)c4)NC(=O)Cn4nc(C(F)F)c5c4C(F)(F)[C@@H]4C[C@H]54)nc4nc(C5CCC(F)(F)CC5)cc(NCCC5CCOCC5)c4c3=O)c21 (atropisomer, axis not shown; (P)) [Example 550] ?
Output line: > 20 nM

Input line: Requested field: CC50 at 4 days. Item: COCCCn1nc(NS(C)(=O)=O)c2c(Cl)ccc(-n3c([C@H](Cc4cc(F)cc(F)c4)NC(=O)Cn4nc(C(F)F)c5c4C(F)(F)[C@@H]4C[C@H]54)nc4nc(C5CCC(F)(F)CC5)cc(NCCN5C[C@H](F)C[C@H](F)C5)c4c3=O)c21 (atropisomer, axis not shown; (P)) [Example 509]
Output line: > 20 nM

* * *

assay: Compound cytotoxicity, XTT-based colorimetric assay; type: cell-based; settings: human
Listed here: items and their measured CC50 at 4 days.

Solved cases below.
compound	quantity	value-measured
CS(=O)(=O)Nc1nn(CCN2[C@@H]3CC[C@H]2COC3)c2c(-n3c([C@H](Cc4cc(F)cc(F)c4)NC(=O)Cn4nc(C5CC5)c5c4C[C@@H]4C[C@H]54)nc4nc(C5CCC(F)(F)CC5)ccc4c3=O)ccc(Cl)c12 (atropisomer, axis not shown; (P))	CC50 at 4 days	> 20 nM
Cc1cc(C2(F)CCC(F)(F)CC2)nc2nc([C@H](Cc3cc(F)cc(F)c3)NC(=O)Cn3nc(C(F)F)c4c3C(F)(F)[C@@H]3C[C@H]43)n(-c3ccc(Cl)c4c(NS(C)(=O)=O)nn(CCN5CC6CC(C5)O6)c34)c(=O)c12	CC50 at 4 days	> 20 nM
Cc1cc(C2CCC(F)(F)CC2)nc2nc([C@H](Cc3cc(F)cc(F)c3)NC(=O)Cn3nc(C(F)F)c4c3C(F)(F)[C@@H]3C[C@H]43)n(-c3ccc(Cl)c4c(NS(C)(=O)=O)nn(CCN5[C@@H]6CC[C@H]5CC(F)(F)C6)c34)c(=O)c12 (atropisomer, axis not shown; (P))	CC50 at 4 days	> 50 nM

Attention now shifts to the item below.
Input line: Need CC50 at 4 days of COCCCn1nc(NS(C)(=O)=O)c2c(Cl)ccc(-n3c([C@H](Cc4cc(F)cc(F)c4)NC(=O)Cn4nc(C(F)F)c5c4C(F)(F)[C@@H]4C[C@H]54)nc4nc(C5CCC(F)(F)CC5)cc(CN5C[C@H]6C[C@@H](C5)O6)c4c3=O)c21 (atropisomer, axis not shown; (P)) , thanks.
Output line: > 20 nM

* * *

experiment: Compound cytotoxicity, XTT-based colorimetric assay; type: cell-based; conditions: human; uninfected MT2 cells, day 4, XTT; read-out: CC50
quantity: CC50 at 4 days

compound	CC50 at 4 days
COCCNc1cc(C2CCC(F)(F)CC2)nc2nc([C@H](Cc3cc(F)cc(F)c3)NC(=O)Cn3nc(C(F)F)c4c3C(F)(F)[C@@H]3C[C@H]43)n(-c3ccc(Cl)c4c(NS(C)(=O)=O)nn(CCN5C[C@H]6CC[C@@H](C5)O6)c34)c(=O)c12 (atropisomer, axis not shown; (P))	> 0.02 µM

Field: next compound
Input line: Tell me the measured CC50 at 4 days of Cc1cc(C2CCC(F)(F)CC2)nc2nc([C@H](Cc3cc(F)cc(F)c3)NC(=O)Cn3nc(C4CC4)c4c3C[C@@H]3C[C@H]43)n(-c3ccc(Cl)c4c(NS(C)(=O)=O)nn(CCN5CC(C)(C)OC(C)(C)C5)c34)c(=O)c12 (atropisomer, axis not shown; (P)) , please.
Output line: > 20 µM

* * *

system: uninfected MT2 cells; experiment: Compound cytotoxicity, XTT-based colorimetric assay; type: cell-based; conditions: uninfected MT2 cells, day 4, XTT
quantity: CC50

Input line: I would be grateful if you could share the reported CC50 for Cc1cc(C2(F)CCC(F)(F)CC2)nc2nc([C@H](Cc3cc(F)cc(F)c3)NC(=O)Cn3nc(C(F)F)c4c3C(F)(F)[C@@H]3C[C@H]43)n(-c3ccc(Cl)c4c(NS(C)(=O)=O)nn(C[C@@H](C)N5C[C@H](F)C[C@H](F)C5)c34)c(=O)c12 (atropisomer, axis not shown; (P)) [Example 703] .
Output line: > 20 nM

* * *

assay: Compound cytotoxicity, XTT-based colorimetric assay; format: cell-based; conditions: human; uninfected MT2 cells, day 4, XTT; read-out: CC50
quantity: CC50 at 4 days

Illustrative cases are given below, each with its answer.
compound	CC50 at 4 days
Cc1cc(C2CCC(F)(F)CC2)nc2nc([C@H](Cc3cc(F)cc(F)c3)NC(=O)Cn3nc(C4CC4)c4c3C[C@@H]3C[C@H]43)n(-c3ccc(Cl)c4c(NS(C)(=O)=O)nn(CCN5C[C@@H](F)C[C@H](F)C5)c34)c(=O)c12 (atropisomer, axis not shown; (P)) [Example 444]	> 20 nM
Cc1cc(C2(F)CCC(F)(F)CC2)nc2nc([C@H](Cc3cc(F)cc(F)c3)NC(=O)Cn3nc(C(F)F)c4c3C(F)(F)[C@@H]3C[C@H]43)n(-c3ccc(Cl)c4c(NS(C)(=O)=O)nn(C[C@@H](C)N5C[C@H](F)C[C@H](F)C5)c34)c(=O)c12 (atropisomer, axis not shown; (P)) [Example 697]	> 20 nM

Input line: Which measured CC50 at 4 days value corresponds to Cc1cc(C2CCC(F)(F)CC2)nc2nc([C@H](Cc3cc(F)cc(F)c3)NC(=O)Cn3nc(C(F)(F)F)c4c3C[C@@H]3C[C@H]43)n(-c3ccc(Cl)c4c(NS(C)(=O)=O)nn(CCN5CCOCC5)c34)c(=O)c12 (atropisomer, axis not shown; (P)) [Example 115] ?
Output line: > 50 nM

* * *

# CC50 at 4 days listing for each entry below
experiment: Compound cytotoxicity, XTT-based colorimetric assay; type: cell-based; conditions: human; uninfected MT2 cells, day 4, XTT; read-out: CC50

Consider the following illustrative entries.
compound	CC50 at 4 days
COCCCn1nc(NS(C)(=O)=O)c2c(Cl)ccc(-n3c([C@H](Cc4cc(F)cc(F)c4)NC(=O)Cn4nc(C(F)F)c5c4C(F)(F)[C@@H]4C[C@H]54)nc4nc(C5CCC(F)(F)CC5)cc(NC[C@H]5CCOC5)c4c3=O)c21 (atropisomer, axis not shown; (P))	> 20 nM
Cc1cc(C2CCC(F)(F)CC2)nc2nc([C@H](Cc3cc(F)cc(F)c3)NC(=O)Cn3nc(C(F)F)c4c3C(F)(F)[C@@H]3C[C@H]43)n(-c3ccc(Cl)c4c(NS(C)(=O)=O)nn(CCN5CCCC(F)(F)C5)c34)c(=O)c12 (atropisomer, axis not shown; (P))	> 50 nM
C[C@H](O)c1cc(C2CCC(F)(F)CC2)nc2nc([C@H](Cc3cc(F)cc(F)c3)NC(=O)Cn3nc(C(F)F)c4c3C(F)(F)[C@@H]3C[C@H]43)n(-c3ccc(Cl)c4c(NS(C)(=O)=O)nn(CCN5CCC(F)(F)CC5)c34)c(=O)c12 (relative stereo)	> 20 nM
Cc1cc(C2(F)CCC(F)(F)CC2)nc2nc([C@H](Cc3cc(F)cc(F)c3)NC(=O)Cn3nc(C(F)F)c4c3C(F)(F)[C@@H]3C[C@H]43)n(-c3ccc(Cl)c4c(NS(C)(=O)=O)nn(CCc5cccnc5)c34)c(=O)c12 (atropisomer, axis not shown; (P))	> 20 nM
Cc1cc(C2CCC(F)(F)CC2)nc2nc([C@H](Cc3cc(F)cc(F)c3)NC(=O)Cn3nc(C4CC4)c4c3C[C@@H]3C[C@H]43)n(-c3ccc(Cl)c4c(NS(C)(=O)=O)nn(CCN5CC(C(F)F)C5)c34)c(=O)c12 (atropisomer, axis not shown; (P))	> 50 nM

Input line: Entry under review: CS(=O)(=O)Nc1nn(CCN2CCC3(CC2)COC3)c2c(-n3c([C@H](Cc4cc(F)cc(F)c4)NC(=O)Cn4nc(C(F)F)c5c4C(F)(F)[C@@H]4C[C@H]54)nc4nc(C5CCC(F)(F)CC5)ccc4c3=O)ccc(Cl)c12 (atropisomer, axis not shown; (P)) . Reported CC50 at 4 days?
Output line: > 50 nM

Input line: # input compound: Cc1cc(C2(F)CCC(F)(F)CC2)nc2nc([C@H](Cc3cc(F)cc(F)c3)NC(=O)Cn3nc(C4CC4)c4c3C[C@@H]3C[C@H]43)n(-c3ccc(Cl)c4c(NS(C)(=O)=O)nn(CCN5CC(C)(C)OC(C)(C)C5)c34)c(=O)c12 (atropisomer, axis not shown; (P)) ; wanted: its CC50 at 4 days
Output line: > 20 nM
